# Tested on: SNB-19 CNS
# RUN DESCRIPTION: NCI-60 one-dose screen, 48 h (100 = growth as untreated, 0 = no growth, -100 = all killed)
# CONDITION DESCRIPTION: 10 µM unless noted
The panel holds about 83,000 compounds, 20% with a hit somewhere; the sample as a whole holds those more often.
Some compounds, each annotated with its measured growth.
MEASURED PARAMETER: growth (%)

>>> assay_value("COc1ccc(Nc2ncccc2C(=O)NCc2cn(Cc3cc(OC)cc(OC)c3)nn2)cc1")
106
>>> assay_value("CCCCn1c(C)nc2cc(Nc3nc(Cl)nc4nc[nH]c34)ccc21")
87.4
>>> assay_value("COc1cccc(/C=N/N=C(N)N)c1")
101
>>> assay_value("CCCCN(CCCC)CCCN=c1nc2c(c(N)n1-c1ccccc1)c(=S)n(-c1ccccc1)c(=S)n2-c1ccccc1")
-87.4
>>> assay_value("C=CCn1c(C)nc2cc(Nc3nc(N4CCOCC4)nc4nc[nH]c34)ccc21")
95.4
>>> assay_value("COc1cc(C2Nc3ccccc3S2)cc(CN2CCOCC2)c1O (stereo unspecified)")
75.9
>>> assay_value("CC1=C(C(=O)Nc2ccc(F)cc2)C(c2ccccc2)C2=C(CC(C)(C)CC2=O)N1 (stereo unspecified)")
87.4
>>> assay_value("CCCCOc1ncnc2nc[nH]c12")
99.8
>>> assay_value("COc1cc(Nc2ccnc3ccc(Br)cc23)cc(OC)c1OC")
32.9
>>> assay_value("COc1ccc(NC(=O)/C=C/c2ccc(NC(=O)N3CCCC3)cc2)cn1")
102
>>> assay_value("Cc1cc(O)ccc1C1=NN(c2ccc(S(N)(=O)=O)cc2)C(=O)CC1")
82.3
>>> assay_value("COc1cc(/C=C/C(=O)c2c(C)nc3ccccc3c2C)ccc1OCCCOc1cc2c(cc1OC)C(=O)N1CCC[C@H]1C=N2")
-49.8
>>> assay_value("COc1cc2c(cc1OC)C(=O)C(Br)CC2 (stereo unspecified)")
85.3
>>> assay_value("O=C(CS)OCC(COC(=O)CS)(COC(=O)CS)COC(=O)CS")
119
>>> assay_value("CC1(C)CC[C@]2(C(=O)N3CCNCC3)CC[C@]3(C)C(=CC[C@@H]4[C@@]5(C)CCC(=O)C(C)(C)[C@@H]5CC[C@]43C)[C@@H]2C1")
98
>>> assay_value("Nc1nonc1-c1nc2ccccc2n1Cc1ccc(F)cc1")
63.8
>>> assay_value("O=c1cc(-c2ccc3c(c2)OCCO3)oc2cc(Cl)ccc12")
30.3
>>> assay_value("CCCCN(CCCC)CCC(=O)c1ccc(OC)c2ccccc12")
87
>>> assay_value("COc1ccc(-n2nc(C(=O)NCC(=O)Nc3nc4cc(OC)ccc4s3)c3ccccc3c2=O)cc1")
0.597
>>> assay_value("O=C(N=Nc1c(Cl)c(O)c2ccccc2c1O)C(=O)Nc1cccc(C(F)(F)F)c1")
92.6
>>> assay_value("O=Cc1ccc2nc(C(Cl)(Cl)Cl)ccc2c1")
102
